molecular target: E3 ubiquitin-protein ligase XIAP (Homo sapiens) (UniProt P98170); assay: XIAP binders, primary screen, biophysical, small-molecule microarray, fluorescence 635 nm (AID 1181); conditions: small-molecule microarray binding, higher = more signal;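 note: score merges 667 nm emission and signal to noise over triplicate slides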
Sequence (P98170 whole entry, looked up): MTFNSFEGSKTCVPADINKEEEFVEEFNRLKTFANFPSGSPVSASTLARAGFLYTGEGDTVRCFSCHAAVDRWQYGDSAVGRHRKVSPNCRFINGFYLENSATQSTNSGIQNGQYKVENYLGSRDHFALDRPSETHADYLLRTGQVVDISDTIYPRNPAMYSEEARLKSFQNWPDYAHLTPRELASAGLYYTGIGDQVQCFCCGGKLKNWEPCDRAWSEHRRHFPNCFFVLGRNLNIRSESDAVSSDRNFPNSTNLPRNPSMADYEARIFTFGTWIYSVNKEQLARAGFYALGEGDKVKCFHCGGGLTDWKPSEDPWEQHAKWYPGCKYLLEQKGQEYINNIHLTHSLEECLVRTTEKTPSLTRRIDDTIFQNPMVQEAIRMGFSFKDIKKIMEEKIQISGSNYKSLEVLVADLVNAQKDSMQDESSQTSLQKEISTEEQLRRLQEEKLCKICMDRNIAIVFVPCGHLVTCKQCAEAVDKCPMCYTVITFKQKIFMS
Answer rule not met if composite z-score is under 0.2, and rule met if it is 0.2 or more.

Example entries and their recorded answers appear below.
- molecule: "COCCOC(=O)N1C(=O)[C@@]2(c3cc(C#CC4=CCCCC4)ccc31)[C@H](c1ccc(O)cc1)N1[C@H](c3ccccc3)[C@H](c3ccccc3)OC(=O)[C@H]1[C@@H]2C(=O)Nc1nc2ccccc2s1"
  tgt: "E3 ubiquitin-protein ligase XIAP (Homo sapiens) (UniProt P98170)"
  group.label: "rule not met"
- molecule: "O=C(CCCCCCC(=O)Nc1ccccc1)N/N=C/c1ccccc1"
  tgt: "E3 ubiquitin-protein ligase XIAP (Homo sapiens) (UniProt P98170)"
  group.label: "rule met"
- molecule: "C=C(/C(=C/C[C@@H](OC(=O)c1ccncc1)c1ccc(OCCO)cc1)c1cc(C(=O)OC)ccc1OC)C(C)C"
  tgt: "E3 ubiquitin-protein ligase XIAP (Homo sapiens) (UniProt P98170)"
  group.label: "rule not met"

Problem: In plain terms: is recorded composite z-score at least 0.2 for NC(=O)NCC#Cc1ccc2c(c1)[C@]1(C(=O)N2)[C@H](C(=O)Nc2nc3ccccc3s2)[C@H]2C(=O)O[C@H](c3ccccc3)[C@H](c3ccccc3)N2[C@@H]1c1ccc(O)cc1 ?
Solution: rule not met

Problem: Could you please find out whether O=C1OCC=C[C@H]2OC34C=CCN(c5ccc(Cl)cc5)C(=O)[C@H]3N(CCCCCO)C(=O)[C@@H]4[C@@H]12 (stereo partly specified) has composite z-score that meets 0.2 or exceeds it?
Solution: rule met

Problem: hey, is composite z-score for this one >= 0.2? COCCOC(=O)N1C(=O)[C@@]2(c3cc(C#Cc4ccc(OC)cc4)ccc31)[C@H](C(=O)NC[C@H](O)c1ccccc1)[C@H]1C(=O)O[C@H](c3ccccc3)[C@H](c3ccccc3)N1[C@@H]2c1ccc(O)cc1
Solution: rule met

----------
biological target: Albumin (Bos taurus) (UniProt P02769); assay: bovine serum albumin binders on microarray, profiling panel, artefact control for SMM control protein annotation, biochemical, small-molecule microarray, Alexa647 label, 635/667 nm fluorescence (AID 1118); conditions: BSA-A647 binding, fluorescence 635 nm, higher = more signal;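 note: score merges 667 nm emission intensity and signal-to-noise per printed compound spot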
Sequence (P02769 whole entry, looked up): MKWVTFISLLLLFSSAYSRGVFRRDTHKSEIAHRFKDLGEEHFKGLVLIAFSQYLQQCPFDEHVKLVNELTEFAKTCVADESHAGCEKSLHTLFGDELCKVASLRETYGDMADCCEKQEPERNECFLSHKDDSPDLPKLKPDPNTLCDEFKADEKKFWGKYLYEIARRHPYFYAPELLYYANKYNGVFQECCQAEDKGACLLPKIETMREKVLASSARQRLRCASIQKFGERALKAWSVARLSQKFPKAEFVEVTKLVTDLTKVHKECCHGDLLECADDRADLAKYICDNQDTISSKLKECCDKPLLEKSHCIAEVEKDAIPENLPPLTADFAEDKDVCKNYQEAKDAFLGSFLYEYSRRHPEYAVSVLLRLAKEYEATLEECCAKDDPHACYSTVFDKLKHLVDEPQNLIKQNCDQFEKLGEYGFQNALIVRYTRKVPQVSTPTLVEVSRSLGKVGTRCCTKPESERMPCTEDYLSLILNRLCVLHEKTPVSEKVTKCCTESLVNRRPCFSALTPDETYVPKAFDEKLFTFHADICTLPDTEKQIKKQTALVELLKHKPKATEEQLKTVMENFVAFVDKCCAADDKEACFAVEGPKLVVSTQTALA
Measured composite z-score values are reported for all entries that follow.
Lab note: jot down the number only; don't add units.

Example entries and their recorded answers appear below.
- compound: "CCOC(=O)C[C@H]1[C@H](OC(=O)Cc2ccc3c(c2)OCO3)[C@@H](NC(=O)C2CCCCC2)c2cc(OCCCO)ccc2N1C(=O)c1ccc2ccccc2n1"
  measurement.type: "composite z-score"
  meas.value: 0.245
- compound: "COC(=O)C[C@H]1O[C@]2(C(=O)N(C)c3ccccc32)[C@@H](C)[C@@H]1[Si](C)(C)c1ccc(C)cc1"
  measurement.type: "composite z-score"
  meas.value: 0.683
- compound: "CCOc1cc(C(O)C2C=CC3C(=O)N(C4CCCCC4)C(=O)C3N2Nc2ccc(OC)cc2)ccc1O (stereo not given)"
  measurement.type: "composite z-score"
  meas.value: 0.786
- compound: "O=C1NCC(=O)N2[C@@H]1C[C@@H](C(=O)O)[C@H]2c1ccc(O)cc1"
  measurement.type: "composite z-score"
  meas.value: -0.575

Now take the following compound into account.
Noted for O=C(NC1CC1)[C@@H]1c2ccccc2C(=O)N(Cc2ccccc2)[C@H]1c1ccc(CO)cc1 : its composite z-score reads 0.0082
